- ASSAY SYSTEM: Recombinant human MASP2 enzyme (fragment corresponding to amino acids 297-686, C-terminal His Tag) (human, UniProt O00187 297-686)
- Sequence (O00187 other isoform, or with tags, fused parts or gaps limits assumed): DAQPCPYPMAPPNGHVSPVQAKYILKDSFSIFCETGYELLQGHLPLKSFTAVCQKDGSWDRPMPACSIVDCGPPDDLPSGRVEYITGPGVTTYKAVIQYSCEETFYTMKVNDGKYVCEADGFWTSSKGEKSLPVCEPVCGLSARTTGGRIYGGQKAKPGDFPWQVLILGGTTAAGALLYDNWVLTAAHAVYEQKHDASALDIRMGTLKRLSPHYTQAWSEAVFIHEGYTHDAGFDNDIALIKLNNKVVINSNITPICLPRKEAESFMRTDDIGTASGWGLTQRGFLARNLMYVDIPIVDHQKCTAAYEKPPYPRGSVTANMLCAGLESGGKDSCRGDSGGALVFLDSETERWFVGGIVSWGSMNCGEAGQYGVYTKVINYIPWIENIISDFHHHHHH
- ASSAY OVERVIEW: cell-based or functional assay
Bridge positions count the residues as written; N and C are the ends. Square brackets hold non-standard residues; d marks the D form. Ends that are not written are not given here. NMeI = CC[C@H](C)[C@H](NC)C(=O)O; tBuAla = CC(C)(C)C[C@H](N)C(=O)O; NMeC = CN[C@@H](CS)C(=O)O; NPhGly = O=C(O)CNc1ccccc1
OUTCOME MEASURE: human MASP2 IC50 (nM)

- BINDER: "[NPhGly]ICSRS[tBuAla]PPI[NMeC]I-NH2 (disulfide 3-11; N-terminus assumed; SMILES CC[C@H](C)[C@H](NC(=O)[C@@H]1CSSC[C@H](NC(=O)[C@@H](NC(=O)CNc2ccccc2)[C@@H](C)CC)C(=O)N[C@@H](CO)C(=O)N[C@@H](CCCNC(=N)N)C(=O)N[C@@H](CO)C(=O)N[C@@H](CC(C)(C)C)C(=O)N2CCC[C@H]2C(=O)N2CCC[C@H]2C(=O)N[C@@H]([C@@H](C)CC)C(=O)N1C)C(N)=O) [((N-Ph)G)-IC+SRS-((tBu)A)-PPI-((N-Me)C)+I-NH2]"
  OUTCOME MEASURE: "human MASP2 IC50"
  VALUE MEASURED: 42
- BINDER: "G[NMeI]CSRSLPPICIPD-OH (disulfide 3-11; N-terminus assumed; SMILES CC[C@H](C)[C@@H]1NC(=O)[C@@H]2CCCN2C(=O)[C@@H]2CCCN2C(=O)[C@H](CC(C)C)NC(=O)[C@H](CO)NC(=O)[C@H](CCCNC(=N)N)NC(=O)[C@H](CO)NC(=O)[C@@H](NC(=O)[C@H]([C@@H](C)CC)N(C)C(=O)CN)CSSC[C@@H](C(=O)N[C@H](C(=O)N2CCC[C@H]2C(=O)N[C@@H](CC(=O)O)C(=O)O)[C@@H](C)CC)NC1=O) [G-((N-Me)I)-C+SRSLPPIC+IPD-OH]"
  OUTCOME MEASURE: "human MASP2 IC50"
  VALUE MEASURED: 1100
